Tested on: 624824-186-R-J2-PDC multicell spheroids, viability;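 note: spheroids exposed to agents for 7 days before viability read; 100% = DMSO vehicle treated spheroids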
Assay: Anticancer human tumor 624824-186-R-J2-PDC patient-derived colon adenocarcinoma cell line growth inhibition [PI3K]
Details: second compound 0.1 µM; first compound 3.16 µM; stronger effect = lower value
quantityName: viability, T/C

1) C=CC(=O)N1CCN(c2nc(=O)n(-c3c(C)ccnc3C(C)C)c3nc(-c4c(O)cccc4F)c(F)cc23)C(C)C1 (configuration not stated) + Cc1nc(NC(=O)N2CCCC2C(N)=O)sc1-c1ccnc(C(C)(C)C(F)(F)F)c1 = 93.9%
2) C#Cc1c(F)ccc2cc(O)cc(-c3ncc4c(N5CC6CCC(C5)N6)nc(OCC56CCCN5CC(F)C6)nc4c3F)c12 (configuration not stated) + CC(Nc1ccc2c(c1)OCCn1cc(N3C(=O)OCC3C(F)F)nc1-2)C(N)=O = 93.3%
3) CC(Cn1ccc(-c2ccc(C#N)c(Cl)c2)n1)NC(=O)c1cc(C(C)O)[nH]n1 (configuration not stated) + CC(Nc1ccc2c(c1)OCCn1cc(N3C(=O)OCC3C(F)F)nc1-2)C(N)=O = 93.2%
4) Cn1nccc1Nc1nccc(-c2ccn(C(CO)c3ccc(Cl)c(F)c3)c(=O)c2)n1 (configuration not stated) + Cc1nc(NC(=O)N2CCCC2C(N)=O)sc1-c1ccnc(C(C)(C)C(F)(F)F)c1 = 108%
5) CC1(C)CCC(Nc2ncc(C(F)(F)F)c(-c3c[nH]c4c(P(C)(C)=O)c(C#N)ccc34)n2)CN1 (configuration not stated) + CC(Nc1ncnc2nc[nH]c12)c1cc2cccc(Cl)c2c(=O)n1-c1ccccc1 = 65.7%
6) CC(Cn1ccc(-c2ccc(C#N)c(Cl)c2)n1)NC(=O)c1cc(C(C)O)[nH]n1 (configuration not stated) + CC(Nc1ncnc2nc[nH]c12)c1cc2cccc(Cl)c2c(=O)n1-c1ccccc1 = 98.5%

Switching to the query record.
-- ask Query (molecule): CC(C)NCC(C(=O)N1CCN(c2ncnc3c2C(C)CC3O)CC1)c1ccc(Cl)cc1 (configuration not stated) + COc1c(OCCCN2CCOCC2)ccc2c3n(c(=NC(=O)c4cnc(N)nc4)nc12)CCN3 ; field requested: viability, T/C
-- reply 77.4%

All values here come from PubChem BioAssay AID1963975.
